System: P. aeruginosa PAO1
assay.summary: Bacterial inhibition assay (resazurin), MIC against P. aeruginosa
Type: cell-based, Pseudomonas aeruginosa
experimental.conditions: Pseudomonas aeruginosa, PAO1; synthetic compounds, 18 h incubation
assay.endpoint: log10 MIC (log10 of the value in µM)

molecule | assay.endpoint | data.value
CCCCCCCCN(CCCCCCCC)c1cccc(C)c1 | log10 MIC | 0.79
CCCCCCCCN(CCCCCCCC)Cc1ccccc1 | log10 MIC | 1.70
CCCCCCCCCCN(CCCCCC)CCCCCC | log10 MIC | 0.49
CCCCCCCCN(CCCCCCCC)CCc1cn(-c2ccc3c4c(cccc24)C(=O)N(CC)C3=O)nn1 | log10 MIC | 1.10
CCCCCCCCN(CCCCCCCC)c1ccc(C)cc1 | log10 MIC | 2.00
CCCCCCCCN(CCCCCCCC)CCCCCCCC [Compound 13, N,N,N-Trioctylammonium Chloride] | log10 MIC | 1.40

* * *

System: M. tuberculosis H37Rv
Measured MIC values are reported for all entries that follow.
assay.endpoint: MIC (µM)

compound | assay.endpoint | data.value
CCCCCCCCN(CCCCCCCC)CCc1cn(-c2ccc3c4c(cccc24)C(=O)N(CC)C3=O)nn1 [Compound 18] | MIC | 12.5
CCCCCCCCN(CCCCCCCC)Cc1ccccc1 [Compound 2a, N-Benzyl-N-Octyloctan-1Amine] | MIC | 1.5
CCCCCCCCN(CCCCCCCC)c1ccc(C)cc1 [Compound 1b, N,N-Dioctyl-4-Methylaniline] | MIC | 25
CCCCCCCCN(CCCCCCCC)c1cccc(C)c1 [Compound 1a, N,N-Dioctyl-3-Methylaniline] | MIC | 1.5
CCCCCCCCN(CCCCCCCC)CCCCCCCC [Compound 13, N,N,N-Trioctylammonium Chloride] | MIC | 0.02
CCCCCCCCCCN(CCCCCC)CCCCCC [Compound 3, N,N-Dihexyldecan-1-Amine] | MIC | 3.1

// provenance: paper PMC7729195
